The measurements presented in this section are drawn from ChEMBL document CHEMBL1201862.

molecular target: Beta-lactamase (Pseudomonas aeruginosa); assay: inhibition of IMP-1 beta-lactamase activity – biochemical, epi-absorbance, selectivity assay for VIM-2 inhibitor project, dose response (AID 1920)
Sequence (Q79MP6 whole entry): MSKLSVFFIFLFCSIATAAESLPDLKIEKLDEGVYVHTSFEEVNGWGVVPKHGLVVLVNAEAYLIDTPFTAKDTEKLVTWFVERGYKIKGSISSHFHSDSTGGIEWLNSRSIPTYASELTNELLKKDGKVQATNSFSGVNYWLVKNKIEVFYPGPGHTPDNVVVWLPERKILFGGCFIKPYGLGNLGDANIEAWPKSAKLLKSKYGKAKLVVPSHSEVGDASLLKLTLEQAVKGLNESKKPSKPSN
Active and inactive are the calls of the source.
Here, each record is paired with measured IC50 data.
valueType: IC50

>>> df
                                 smilesdata                result
0  CC(C)(C)c1ccc(-c2n[nH]c(=S)n2CCCN2CCOCC2)cc1  > 59.6 µM (inactive)
1  CC(C)(C)CC(=O)Nc1nnc(SCC(=O)NCc2cccs2)s1  > 59.6 µM (inactive)
2  COc1ccc2[nH]c(C(=O)O)c(CCN3C(=O)c4ccc(C(=O)O)cc4C3=O)c2c1  > 59.6 µM (inactive)
3          CCc1nnc(S)n1/N=C/C(C)=C\c1ccccc1  > 59.6 µM (inactive)

###

molecular target: Aryl hydrocarbon receptor (Homo sapiens, UniProt P35869); experiment: Luminescence-based cell-based high throughput dose response assay for activators of the Aryl Hydrocarbon Receptor (AHR). [Related pubchem assays: 2796 (Primary screen (AHR activators in singlicate)), 2845 (Confirmation screen (AHR activators in triplicate)), 434939 (Counterscreen (PXR activators in triplicate)), 2804 (Summary (AHR activators))]; type: ADME
Sequence (P35869 whole entry): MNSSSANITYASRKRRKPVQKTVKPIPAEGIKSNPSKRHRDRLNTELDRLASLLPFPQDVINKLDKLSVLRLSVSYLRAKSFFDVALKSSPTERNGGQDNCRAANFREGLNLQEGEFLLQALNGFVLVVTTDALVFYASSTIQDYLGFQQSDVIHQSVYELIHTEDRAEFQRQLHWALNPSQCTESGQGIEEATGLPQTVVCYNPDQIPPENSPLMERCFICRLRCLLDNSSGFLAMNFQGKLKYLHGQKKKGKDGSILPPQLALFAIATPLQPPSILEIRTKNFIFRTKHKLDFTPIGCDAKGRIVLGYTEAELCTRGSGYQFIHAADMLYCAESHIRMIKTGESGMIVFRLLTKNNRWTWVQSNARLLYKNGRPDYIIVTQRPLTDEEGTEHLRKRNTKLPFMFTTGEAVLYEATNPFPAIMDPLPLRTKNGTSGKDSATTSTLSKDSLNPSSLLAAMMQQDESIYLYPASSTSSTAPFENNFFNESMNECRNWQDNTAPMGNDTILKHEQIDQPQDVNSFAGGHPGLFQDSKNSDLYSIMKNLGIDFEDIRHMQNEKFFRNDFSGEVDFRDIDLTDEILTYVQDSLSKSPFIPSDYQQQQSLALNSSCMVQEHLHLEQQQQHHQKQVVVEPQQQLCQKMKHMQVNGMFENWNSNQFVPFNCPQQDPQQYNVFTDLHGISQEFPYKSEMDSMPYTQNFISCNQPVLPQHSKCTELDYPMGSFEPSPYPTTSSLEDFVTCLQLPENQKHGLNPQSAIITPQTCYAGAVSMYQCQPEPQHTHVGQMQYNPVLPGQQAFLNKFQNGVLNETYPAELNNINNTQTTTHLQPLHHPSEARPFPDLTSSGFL
The source made the active and inactive calls.
valueType: EC50

                                 smilesdata             result
0      N#C/C(=C/c1ccccc1)c1nn(CCO)c(N)c1C#N   6.55 µM (active)
1              O=C1c2ccccc2-c2nc3ccccc3nc21   1.22 µM (active)
2  C/C(=N\NC(=O)c1cccnc1)c1ccc(-n2ccnc2)cc1   5.46 µM (active)
3          O=C(NC(=S)Nc1ccc(F)c(Cl)c1)C1CC1  0.861 µM (active)

###

tested on: SN12K1; test: cells; assay type: functional; conditions: Homo sapiens
Calls of active or inactive are those of the source.
Classes used: active, inactive

In [3]: df
Out[3]:
                                 smilesdata  system  labelclass
0            O=C(O)CCCc1ccc(N(CCCl)CCCl)cc1  SN12K1    inactive
1  CCN(CC)c1ccc2cc(C(=O)Nc3ccc4[nH]c(C(=O)N5C[C@@H](CCl)c6c5cc(OC(=O)Nc5ccccc5)c5[nH]cc(C)c65)cc4c3)oc2c1  SN12K1      active
2  O=[N+]([O-])c1cc2ncc(-c3ccccc3)c(O)c2cc1/C(Cl)=C/c1ccccc1  SN12K1    inactive
3           CC(=O)/C=C/c1c[nH]c(=O)[nH]c1=O  SN12K1    inactive

###

Let's go through some recorded AC50 values for Cytochrome P450 3A4 (Homo sapiens) together.
valueType: AC50

compound	valueType	result
CC[C@]1(O)C[C@@H]2CN(CCc3c([nH]c4ccccc34)[C@](C(=O)OC)(c3cc4c(cc3OC)N(C=O)[C@H]3[C@@](O)(C(=O)OC)[C@H](C(=O)OC)[C@@]5(CC)C=CCN6CC[C@]43[C@H]65)C2)C1	AC50	25.1 µM (inconclusive)
CC(C)(C)C(=O)N(CCN(C(=O)C(C)(C)C)c1ccccc1)c1ccccc1	AC50	7.08 µM (inconclusive)
O=C1NCC2=C1C(c1ccc(Br)cc1)Nc1ccccc1N2 (centres undefined)	AC50	25.1 µM (inconclusive)
O=C(C1CCC(=O)N1Cc1ccccc1Cl)N1CCN(c2ccc(F)cc2)CC1 (centres undefined)	AC50	12.6 µM (inconclusive)
